B1: Gamma-crystallin S, residues 96 to 176; numbered along this chain, P22914 (parent)
chain: IQIFEKGDFSGQMYETTEDCPSIMEQFHMREIHSCKVLEGVWIFYELPNYRGRQYLLDKKEYRKPIDWGAASPAVQSFRRI

# Variants of: B1
# test method notes: abundance fitness (aPCA) (normalised: wild type 0, dead -1); higher = more abundant; growth selection in yeast, the domain comes from the species named
# setup conditions: Homo sapiens
recorded metric: abundance fitness
Hey, just send me the number, nothing else.

primary sequence	numeric result
IQIFEKGDFSGQMYETSEDCPSIMEQFHMREIHSCKVLEGVWIFYELPNYRGRQYLLDKKEYRKPIDWGAASPAVQSFRRI [T17S]	-0.068
IQIFEKGDFSGQMYETTEDCPSIMEQFHMREIHSCKVLEGVWIFYELPNYRGRQYLLDKKEYRKVIDWGAASPAVQSFRRI [P65V]	0.141
IQIFEKGDFSGQMYETTEDCPSIMEQFHMREIHSCKVLEGVWIFYELPNYRGRQYLLDKQEYRKPIDWGAASPAVQSFRRI [K60Q]	0.064
IQIFEKGDFSGQMYETTRDCPSIMEQFHMREIHSCKVLEGVWIFYELPNYRGRQYLLDKKEYRKPIDWGAASPAVQSFRRI [E18R]	-0.028

### Prompt Identify measured abundance fitness corresponding to IQIFEKGDFSGQMYETTEDCPSIMEQFHMREIHSCKVLEGVWIFYELPVYRGRQYLLDKKEYRKPIDWGAASPAVQSFRRI [N49V]
### Response -0.198

### Prompt Identify measured abundance fitness corresponding to IQIFEKFDFSGQMYETTEDCPSIMEQFHMREIHSCKVLEGVWIFYELPNYRGRQYLLDKKEYRKPIDWGAASPAVQSFRRI [G7F]
### Response 0.084

### Prompt Identify measured abundance fitness corresponding to IQIFEKGDFSGQMTETTEDCPSIMEQFHMREIHSCKVLEGVWIFYELPNYRGRQYLLDKKEYRKPIDWGAASPAVQSFRRI [Y14T]
### Response 0.086

### Prompt Identify measured abundance fitness corresponding to IQIFEKGDFSGQMYETTEDCPSIMEQFHMREIHSCKVLEGVWIFYELANYRGRQYLLDKKEYRKPIDWGAASPAVQSFRRI [P48A]
### Response -0.027

### Prompt Identify measured abundance fitness corresponding to IQWFEKGDFSGQMYETTEDCPSIMEQFHMREIHSCKVLEGVWIFYELPNYRGRQYLLDKKEYRKPIDWGAASPAVQSFRRI [I3W]
### Response -0.047

### Prompt Identify measured abundance fitness corresponding to IQIFEKGDFSGQMYETTEDCPRIMEQFHMREIHSCKVLEGVWIFYELPNYRGRQYLLDKKEYRKPIDWGAASPAVQSFRRI [S22R]
### Response -0.016

### Prompt Identify measured abundance fitness corresponding to IQIFEKGDFSGQMYETTEDCPSIMEQFHMCEIHSCKVLEGVWIFYELPNYRGRQYLLDKKEYRKPIDWGAASPAVQSFRRI [R30C]
### Response 0.009

### Prompt Identify measured abundance fitness corresponding to IQIFEKGDFFGQMYETTEDCPSIMEQFHMREIHSCKVLEGVWIFYELPNYRGRQYLLDKKEYRKPIDWGAASPAVQSFRRI [S10F]
### Response -0.091

These measurements were taken from the Human Domainome abundance scans (Beltran et al. 2025).
